Data origin, for the record: patent US20210246166A1

system: recombinant human MASP2 active protease (amino acids 297-686, C-terminal His Tag) (human, UniProt O00187 297-686)
Sequence (O00187 other isoform, or with tags, fused parts or gaps limits assumed): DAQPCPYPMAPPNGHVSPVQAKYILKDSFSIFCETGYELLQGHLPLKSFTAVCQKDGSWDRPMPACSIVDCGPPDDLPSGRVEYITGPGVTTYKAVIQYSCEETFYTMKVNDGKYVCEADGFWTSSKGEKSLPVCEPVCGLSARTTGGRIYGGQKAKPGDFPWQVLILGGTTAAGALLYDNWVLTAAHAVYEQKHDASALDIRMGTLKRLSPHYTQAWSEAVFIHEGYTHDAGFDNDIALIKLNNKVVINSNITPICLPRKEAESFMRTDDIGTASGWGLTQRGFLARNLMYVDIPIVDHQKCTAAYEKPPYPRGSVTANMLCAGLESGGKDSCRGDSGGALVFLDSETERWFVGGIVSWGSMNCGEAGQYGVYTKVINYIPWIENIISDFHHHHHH
experimentalDetails: cell-based or functional assay
Bridge positions count the residues as written; N and C are the ends. Square brackets hold non-standard residues; d marks the D form. Ends that are not written are not given here. * marks the point of attachment. Oic = O=C(O)[C@@H]1C[C@@H]2CCCC[C@@H]2N1; Butanoyl(3,3-Me2) = CC(C)(C)CC(=O)*; NMeI = CC[C@H](C)[C@H](NC)C(=O)O; tBuAla = CC(C)(C)C[C@H](N)C(=O)O; Pen = CC(C)(S)[C@H](N)C(=O)O; 4Amb = NCc1ccc(C(=O)O)cc1; NMeC = CN[C@@H](CS)C(=O)O
measuredQuantity: human MASP2 IC50 (nM)

binder="{(2S,3S)‑2‑((3S)-2-oxopiperazin-1-yl)‑3‑methylpentanoic acid}-CSRSLPPICIAD-OH (disulfide 1-9) [Example 393: ((2S,3S)-2-[(3S)-2-oxopiperazin-1-yl]-3-methylpentanoic acid)-C+SRSLPPIC+IAD-OH]" unitdescriptor=nM numericreadout=3800
binder="ICSRSLP[Oic]I[Pen]IPQ-NH2 (disulfide 2-10; N-terminus assumed; SMILES CC[C@H](C)[C@H](N)C(=O)N[C@H]1CSSC(C)(C)[C@@H](C(=O)N[C@H](C(=O)N2CCC[C@H]2C(=O)N[C@@H](CCC(N)=O)C(N)=O)[C@@H](C)CC)NC(=O)[C@H]([C@@H](C)CC)NC(=O)[C@@H]2C[C@@H]3CCCC[C@@H]3N2C(=O)[C@@H]2CCCN2C(=O)[C@H](CC(C)C)NC(=O)[C@H](CO)NC(=O)[C@H](CCCNC(=N)N)NC(=O)[C@H](CO)NC1=O) [Example 377: IC+SRSLP-(Oic)-I-(Pen)+IPQ-NH2]" unitdescriptor=nM numericreadout=810
binder="{Butanoyl(3,3-Me2)}-ICSRS[tBuAla]PPI[NMeC]I-NH2 (disulfide 2-10; SMILES CC[C@H](C)[C@H](NC(=O)[C@@H]1CSSC[C@H](NC(=O)[C@@H](NC(=O)CC(C)(C)C)[C@@H](C)CC)C(=O)N[C@@H](CO)C(=O)N[C@@H](CCCNC(=N)N)C(=O)N[C@@H](CO)C(=O)N[C@@H](CC(C)(C)C)C(=O)N2CCC[C@H]2C(=O)N2CCC[C@H]2C(=O)N[C@@H]([C@@H](C)CC)C(=O)N1C)C(N)=O) [Example 333: (tert-Butylacetic acid)-IC+SRS-((tBu)A)-PPI-((N-Me)C)+I-NH2]" unitdescriptor=nM numericreadout=8.4
binder="[4Amb]ICSRSLPPI[NMeC]IPD-NH2 (disulfide 3-11; N-terminus assumed; SMILES CC[C@H](C)[C@H](NC(=O)c1ccc(CN)cc1)C(=O)N[C@H]1CSSC[C@@H](C(=O)N[C@H](C(=O)N2CCC[C@H]2C(=O)N[C@@H](CC(=O)O)C(N)=O)[C@@H](C)CC)N(C)C(=O)[C@H]([C@@H](C)CC)NC(=O)[C@@H]2CCCN2C(=O)[C@@H]2CCCN2C(=O)[C@H](CC(C)C)NC(=O)[C@H](CO)NC(=O)[C@H](CCCNC(=N)N)NC(=O)[C@H](CO)NC1=O) [Example 362: (4-(Aminomethyl)benzoic acid)-IC+SRSLPPI-((N-Me)C)+IPD-NH2]" unitdescriptor=nM numericreadout=65
binder="[NMeI]CSRS[tBuAla]PPI[Pen]IP-NH2 (disulfide 2-10; N-terminus assumed; SMILES CC[C@H](C)[C@H](NC)C(=O)N[C@H]1CSSC(C)(C)[C@@H](C(=O)N[C@H](C(=O)N2CCC[C@H]2C(N)=O)[C@@H](C)CC)NC(=O)[C@H]([C@@H](C)CC)NC(=O)[C@@H]2CCCN2C(=O)[C@@H]2CCCN2C(=O)[C@H](CC(C)(C)C)NC(=O)[C@H](CO)NC(=O)[C@H](CCCNC(=N)N)NC(=O)[C@H](CO)NC1=O) [Example 379: ((N-Me)I)-C+SRS-((tBu)A)-PPI-(Pen)+IP-NH2]" unitdescriptor=nM numericreadout=360
